Cited source: the supplement of paper PMC9732359

assay: protein stability index of a GFP-peptide fusion (yeast GPS) (PSI 1-4); higher = more stable; sorted into four equal gates, so the index is relative within each strain; conditions: ubr1∆
Decide by protein stability index: equal to or exceeding 3 means Fulfilled, less means Not fulfilled.

Please check the record TSASNTSMNGVHNTVAA [SNF5] and state if its protein stability index is at or above 3.
Not fulfilled

Another sequence to check: IEEIEYNVKNIIQGRKN [PCI8]
Not fulfilled

Please answer likewise for LVAKLKKVKSASKKSGG [SMC4]
Not fulfilled

Same thing, different sequence: FKLVSTPSSNSNSSELE [MED1]
Not fulfilled

What would you report for SRIRVKIEGCISQVSSI [RPB7] ?
Not fulfilled

What about this sequence? KQVLDVDPVYKDVAKPT [FAS2]
Not fulfilled

// next record IIESHLIQLQNIFKAEM [CSN9]
Not fulfilled

Let us now turn to YLHNVELGEKKNEKLKF [ISW2]
Not fulfilled

And then IADLDTEAEETSIHSTI [RRP43] , what is it?
Fulfilled

Do the same for LNLNNSELQPQNRSLQE [SNF2] please
Fulfilled

Repeat with ITHTENYNDLIVNYEDL [BRN1]
Fulfilled

Field entry: KSMGRKCFDDIEPHIFD [YCG1]
Fulfilled

And WKYNNFLQKFEIAFHLT [YML103C/NUP188] ?
Not fulfilled

What would you report for TRNITDYSINSRYEPKV [PRE7] ?
Not fulfilled

// query: ISTACPRLDDVVVDTVE [SMC4]
Fulfilled

What do you get for ISLSVHTLALEFVNGGK [RRP46] ?
Not fulfilled

Item: FGRTLASVTKEILGTAQ [RPL12A]
Not fulfilled

Moving on to ITSFLLSKMENVNLDDY [NAS6]
Not fulfilled

Same again, this time with CSDFVKILNLEKPLILA [NUT1]
Not fulfilled

---

assay: protein stability index of a GFP-peptide fusion (yeast GPS) (PSI 1-4); higher = more stable; sorted into four equal gates, so the index is relative within each strain; conditions: ubr1∆
property.name: protein stability index
Form field (numeric): enter value without unit.

QNVAGDKTAVKLDTEVK [SWP82]    3.32
EKNYDRKEPPATVEECV [PRE6]    3.3
WTMAFRTMDDIKDSVRE [ECM29]    2.66
SPLNTTTKILGDKILGN [YML103C/NUP188]    2.12

Return reported protein stability index; argument: YLIKLLGFEVKDQALIG [SIR2]
2.73

What do you get for TRSQFCLNTQRGDSTET [RRI1] ?
3

Next sequence up: RPDGVHVINVGKTWEKL [RPS0A]
3.04

---

assay: protein stability index of a GFP-peptide fusion (yeast GPS) (PSI 1-4); higher = more stable; sorted into four equal gates, so the index is relative within each strain; conditions: pdr5∆
Recorded protein stability index, one value per entry.
Provide a numeric answer; units are not to be included.

ESQLQMDRTSLRKQYSA [SMC3]    2.53

Turning now to a further record.
Requested field: protein stability index. Item: LISRMIFIATQLEKKIR [BRR2]
1.9

---

assay: protein stability index of a GFP-peptide fusion (yeast GPS) (PSI 1-4); higher = more stable; sorted into four equal gates, so the index is relative within each strain; settings: san1∆
Each record here notes measured protein stability index.
Give only the figure.

ALRALQENGTIFRGSLI [YDL088C/ASM4]    1.28
PNIRTMSGTTKRLNGKR [SSN2]    2.39
ATQMTLNTFHFAGVASK [RPO21]    2
NNRQLPYLVANVVEVMD [RPT5]    2.58
NFHNSKKRMNSNQERCH [RRI1]    2.83
VDENETVLESLGRLNKL [LIN1]    2.88
EKKGIVQASVTSSTHER [RET1]    3.45
QSSRVVSLSQLLFIVGQ [YCS4]    1.83

Looking for the measured protein stability index of AACEKLLPPIKIELIKN [RPN12] , can you help?
2.44

Repeat for the following sequence: FVLLEIEPVTKVSSLKM [YCS4]
2.48
